So I've got a bunch of compounds here, and I need their Activity values.
Test system: D-aminoacylase derived from Streptomyces thermonitrificans
Assay: Effect of inhibitors against D-aminoacylase
Type: biochemical
Settings: 1 mM reagent, 50 mM Tris/HCl pH 7.5, 30° C., 100 minutes
Quote the value and follow it with the unit of measurement.

Entry under review: [F-].[Na+] . Reported Activity? 45.2 mU/ml

What about this compound? [I-].[K+] 11.3 mU/ml

What about this compound? CCN1C(=O)C=CC1=O [N-Ethylmaleimide] 1.3 mU/ml

###

So I've got a bunch of compounds here, and I need their Relative activity values.
Test system: D-aminoacylase derived from Streptomyces thermonitrificans
Assay: Substrate specificity of D-aminoacylase
Assay type: biochemical
Conditions: substrate 20 mM; activity against N-acetyl-D-methionine taken as 100%
The reply should contain only the number, in %.

Entry under review: CC(=O)N[C@@H](C(=O)O)C(C)C [N-Ac-D-Val, N-acetyl-D-valine] . Reported Relative activity? 40

What about this compound? CC(=O)N[C@H](C(=O)O)C(C)C [N-Ac-L-Val, N-acetyl-L-valine] 0

What about this compound? CC(=O)N[C@H](Cc1ccccc1)C(=O)O [N-Ac-D-Phe, N-acetyl-D-phenylalanine] 144

What about this compound? CSCC[C@@H](NC(C)=O)C(=O)O [N-Ac-D-Met, N-acetyl-D-methionine] 100

What about this compound? CC(=O)N[C@@H](Cc1ccccc1)C(=O)O [N-Ac-L-Phe, N-acetyl-L-phenylalanine] 0

What about this compound? CC(=O)N[C@H](Cc1c[nH]c2ccccc12)C(=O)O [N-Ac-D-Trp, N-acetyl-D-tryptophan] 105

What about this compound? CC(=O)N[C@H](C)C(=O)O [N-Ac-D-Ala, N-acetyl-D-alanine] 40

What about this compound? CC(=O)N[C@H](CC(C)C)C(=O)O [N-Ac-D-Leu, N-acetyl-D-leucine] 21

What about this compound? CSCC[C@H](NC(C)=O)C(=O)O [N-Ac-L-Met, N-acetyl-L-methionine] 0

###

Tested on: D-aminoacylase derived from Streptomyces thermonitrificans
Assay: Substrate specificity of D-aminoacylase
Type: biochemical
Details: substrate 20 mM, 1 mM cobalt chloride, 50 mM Tris/HCl pH 7.5, 30° C., 60 minutes
OBSERVATION_TYPE: Activity (mU/ml)
The reply should contain only the number, in mU/ml.

Entry under review: CC(=O)N[C@@H](C(=O)O)C(C)C . Reported Activity? 14.7

What about this compound? CC(=O)N[C@H](Cc1c[nH]c2ccccc12)C(=O)O 48.4

What about this compound? CSCC[C@H](NC(C)=O)C(=O)O 0

What about this compound? CC(=O)N[C@H](C)C(=O)O 16.9

What about this compound? CC(=O)N[C@H](CC(C)C)C(=O)O 8.93

What about this compound? CSCC[C@@H](NC(C)=O)C(=O)O 40.6

What about this compound? CC(=O)N[C@H](Cc1ccccc1)C(=O)O 62.2

What about this compound? CC(=O)N[C@H](C(=O)O)C(C)C 0

What about this compound? CC(=O)N[C@@H](Cc1ccccc1)C(=O)O 0

###

System: D-aminoacylase derived from Streptomyces thermonitrificans
Assay: Effect of metal salt for D-aminoacylase
Type: biochemical
Details: 1 mM metal salt or EDTA, 50 mM Tris/HCl pH 7.5, 30° C., 60 minutes
Classification field: enter true (1) for Activity values not below 20 mU/ml, false (0) for values below it.

Assess whether reported Activity for O=C(O)CN(CCN(CC(=O)O)CC(=O)O)CC(=O)O sits at 20 mU/ml or higher. false (0)

What about this compound? [Cl][Co][Cl] [CoCl2, cobalt chloride] true (1)

What about this compound? [Cl][Mn][Cl] true (1)

What about this compound? O=S(=O)([O-])[O-].O=S(=O)([O-])[O-].O=S(=O)([O-])[O-].[Al+3].[Al+3] [Al2(SO4)2] true (1)

What about this compound? [Cl][Fe]([Cl])[Cl] true (1)

What about this compound? [Cl-].[Cl-].[Mg+2] true (1)

What about this compound? [Cl][Cu][Cl] false (0)

What about this compound? [Ba+2].[Cl-].[Cl-] true (1)

What about this compound? [Cl-].[Cl-].[Zn+2] true (1)

What about this compound? [Cl-].[K+] true (1)

What about this compound? [Ca+2].[Cl-].[Cl-] true (1)

What about this compound? [Cl][Ni][Cl] false (0)

What about this compound? [Cl][Sn][Cl] true (1)

###

Tested on: D-aminoacylase derived from Streptomyces thermonitrificans
Assay: Effect of inhibitors against D-aminoacylase
Format: biochemical
Conditions: 1 mM reagent, 50 mM Tris/HCl pH 7.5, 30° C., 100 minutes
Protocol: The measurement of the enzyme activity was proceeded according to the TNBS method (Tokuyama, S., Hatano, K., and Takahashi, T., Biosci.Biotech.Biochem. 58:24(1994)). […] The absorbance at 420 nm was measured after 5 minutes. Various metal salt and various enzyme inhibitors were added to a concentration of 1 mM to the enzyme reaction, and measurement of the enzyme reaction was performed. […] The relative activity was calculated taking activity of enzyme actions without addition of inhibitors as 100%.
OBSERVATION_TYPE: Activity (mU/ml)
The reply should contain only the number, in mU/ml.

Tell me reported Activity for O[C@@H](CS)[C@@H](O)CS , tested with D-aminoacylase derived from Streptomyces thermonitrificans. 34.8

What about this compound? O=S(=O)(F)Cc1ccccc1 [Phenylmethylsulfonyl fluoride] 29.5

What about this compound? O=C(NNc1ccccc1)NNc1ccccc1 [1,5-Diphenylcarbonylhydrazide] 40.5

What about this compound? NO [Hydroxylammonium chloride] 46.5

What about this compound? c1ccc(-c2ccccn2)nc1 21.9

What about this compound? O=C(O)c1cc[c]([Hg][Cl])cc1 2.1

###

System: D-aminoacylase derived from Streptomyces thermonitrificans
Assay: Effect of metal salt for D-aminoacylase
Format: biochemical
Details: 1 mM metal salt or EDTA; no addition = 100%
Doc: threshold 60% (exclusive). Items with Relative activity beneath it return rule met; others return rule not met.

Say whether its Relative activity is strictly beneath 60%. Entry: [Cl-].[Cl-].[Mg+2] rule not met

What about this compound? [Cl][Mn][Cl] rule not met

What about this compound? [Ca+2].[Cl-].[Cl-] rule not met

What about this compound? [Cl][Fe]([Cl])[Cl] rule not met

What about this compound? [Cl][Ni][Cl] rule met

What about this compound? [Cl][Cu][Cl] rule met

What about this compound? O=S(=O)([O-])[O-].O=S(=O)([O-])[O-].O=S(=O)([O-])[O-].[Al+3].[Al+3] [Al2(SO4)2] rule not met

What about this compound? [Cl][Fe][Cl] rule not met

What about this compound? O=C(O)CN(CCN(CC(=O)O)CC(=O)O)CC(=O)O rule met

What about this compound? [Cl-].[Cl-].[Zn+2] rule not met

What about this compound? [Cl-].[K+] rule not met

What about this compound? [Cl][Co][Cl] [CoCl2, cobalt chloride] rule not met

What about this compound? [Ba+2].[Cl-].[Cl-] rule not met

What about this compound? [Cl][Sn][Cl] rule not met

###

System: D-aminoacylase derived from Streptomyces thermonitrificans
Assay: Effect of inhibitors against D-aminoacylase
Assay type: biochemical
Conditions: 1 mM reagent; no addition = 100%
Classification field: enter Criterion met for Relative activity values not below 50%, Criterion not met for values below it.

Assess whether reported Relative activity for O=C(O)c1cc[c]([Hg][Cl])cc1 sits at 50% or higher. Criterion not met

What about this molecule? O[C@@H](CS)[C@@H](O)CS Criterion met

What about this molecule? [I-].[K+] Criterion not met

What about this molecule? O=S(=O)(F)Cc1ccccc1 [Phenylmethylsulfonyl fluoride] Criterion met

What about this molecule? O=C(NNc1ccccc1)NNc1ccccc1 [1,5-Diphenylcarbonylhydrazide] Criterion met

What about this molecule? CCN1C(=O)C=CC1=O [N-Ethylmaleimide] Criterion not met

What about this molecule? [F-].[Na+] Criterion met
